Listed here: items and their measured Papp at 2 h, 10 PM.
# System: MDR1 (Pgp)
# experiment description: Permeability Assay, bi-directional flux in MDCKII-MDR1 cells
# Type: in vitro ADME, canine
# measurement conditions: dog, MDCK-MDR1, 2 hours at 37° C., concentration printed as 10 PM

Below are worked cases with known answers.
{"molecule": "CC(C)n1ccc(-c2cc3ncccc3c(OC[C@@H]3CNCC(C)(C)O3)n2)c1 [Compound 6.9]", "value": "15 to 20 ×10⁻⁶ cm/s"}
{"molecule": "CC(C)n1cc(-c2cc(OC[C@@H]3CNCC(C)(C)O3)c3cccnc3c2)cn1 [Compound 3.6]", "value": "15 to 20 ×10⁻⁶ cm/s"}
{"molecule": "CC(C)n1ccc(-c2cc3ncccc3c(OC[C@@H]3CNCCO3)n2)c1 [Compound 6.2]", "value": "> 20 ×10⁻⁶ cm/s"}
{"molecule": "Cn1ccc(-c2cc3ncccc3c(OC[C@@H]3CNCCO3)n2)c1 [Compound 2.20]", "value": "> 20 ×10⁻⁶ cm/s"}
{"molecule": "Cn1ccc(-c2cc(OC[C@@H]3CNCCO3)c3cccnc3c2)c1 [Compound 3.1]", "value": "15 to 20 ×10⁻⁶ cm/s"}

Query: I would be grateful if you could share the reported Papp at 2 h, 10 PM for CC1(C)CNC[C@@H](COc2nc(-c3cnn(C(C)(C)C)c3)cc3ncccc23)O1 [Compound 2.42] .
Response: > 20 ×10⁻⁶ cm/s

###

# Test system: Ba/F3-WT (wild type) cells
# experiment description: Ba/F3 Proliferation Assay, Ba/F3-WT (wild type) cells with mIL-3 (Resazurin)
# Assay type: cell-based
# measurement conditions: Mus musculus, BaF3, 48 h, Ba/F3-WT cells +mIL-3, 48-hour incubation
metric: pEC50
Reminder that pEC50 means the negative base-10 logarithm of the concentration expressed in mol/L.

Below are worked cases with known answers.
{"compound": "Cn1ccc(-c2cc(OC[C@@H]3CNCC4(CC4)O3)c3nccnc3c2)c1 [Compound 12.4]", "system name": "Ba/F3-WT (wild type) cells", "pEC50": 5.51}
{"compound": "COCCn1ccc(-c2cc(OC[C@@H]3CNCC4(CCC4)O3)c3nccnc3c2)c1 [Compound 8.18]", "system name": "Ba/F3-WT (wild type) cells", "pEC50": 6.48}
{"compound": "CC(C)n1cc(-c2cc3ncccc3c(O[C@H](C)[C@@H]3CNCC(C)(C)O3)n2)cn1 [Compound 2.84]", "system name": "Ba/F3-WT (wild type) cells", "pEC50": 5.66}

Next compound, pEC50 to be filled in.
Query: I would be grateful if you could share the reported pEC50 for FC1(F)CC(Cn2cc(-c3cc4ncccc4c(OC[C@@H]4CNCCO4)n3)cn2)C1 [Compound 6.37] .
Response: 6.25

###

Listed here: items and their measured pEC50.
# System: Ba/F3-WT (wild type) cells
# experiment description: Ba/F3 Proliferation Assay, Ba/F3-WT (wild type) cells with mIL-3 (Resazurin)
# Type: cell-based
# measurement conditions: Mus musculus, BaF3, 48 h, Ba/F3-WT cells +mIL-3, 48-hour incubation
Reminder that pEC50 means the negative base-10 logarithm of the concentration expressed in mol/L.

{"compound": "FC1(F)CC1n1ccc(-c2cc(OC[C@@H]3CNCCO3)c3cccnc3c2)c1 (stereo partly shown) [Compound 7.7]", "metric": "pEC50", "value": 5.36}
{"compound": "C[C@@H]1CNC[C@@H](COc2nc(-c3cnn(C)c3)cc3ncccc23)O1 (relative stereo) [Compound 2.25]", "metric": "pEC50", "value": 5.82}
{"compound": "COCCn1ccc(-c2cc(OC[C@@H]3CNCC(C)(C)O3)c3c(C)ccnc3c2)c1 [Compound 14.11]", "metric": "pEC50", "value": 6.10}

Query: I would be grateful if you could share the reported pEC50 for CCn1ccc(-c2cc(OC[C@@H]3CNCCO3)c3cccnc3c2)c1 [Compound 7.20] .
Response: 5.77

Query: I would be grateful if you could share the reported pEC50 for c1cnc2cc(-c3cc4n(c3)CCC4)cc(OC[C@@H]3CNCCO3)c2c1 [Compound 4] .
Response: 5.14

Query: I would be grateful if you could share the reported pEC50 for Cn1ccc(-c2cc3ncccc3c(OC[C@@H]3CNCCCO3)n2)c1 [Compound 2.52] .
Response: 5.01

Query: I would be grateful if you could share the reported pEC50 for Cn1cc(-c2cc3ncccc3c(OC[C@@H]3CN[C@@H]4CCC[C@@H]4O3)n2)cn1 (relative stereo) [Compound 2.54] .
Response: 5.80
